TARGET_OR_SYSTEM: T1, integrin αVβ5 (UniProt P06756 31-992; P18084 24-719)
T1 construct: Coated on the ELISA plate
T1 sequence (P06756 31-992, chain 1 of 2): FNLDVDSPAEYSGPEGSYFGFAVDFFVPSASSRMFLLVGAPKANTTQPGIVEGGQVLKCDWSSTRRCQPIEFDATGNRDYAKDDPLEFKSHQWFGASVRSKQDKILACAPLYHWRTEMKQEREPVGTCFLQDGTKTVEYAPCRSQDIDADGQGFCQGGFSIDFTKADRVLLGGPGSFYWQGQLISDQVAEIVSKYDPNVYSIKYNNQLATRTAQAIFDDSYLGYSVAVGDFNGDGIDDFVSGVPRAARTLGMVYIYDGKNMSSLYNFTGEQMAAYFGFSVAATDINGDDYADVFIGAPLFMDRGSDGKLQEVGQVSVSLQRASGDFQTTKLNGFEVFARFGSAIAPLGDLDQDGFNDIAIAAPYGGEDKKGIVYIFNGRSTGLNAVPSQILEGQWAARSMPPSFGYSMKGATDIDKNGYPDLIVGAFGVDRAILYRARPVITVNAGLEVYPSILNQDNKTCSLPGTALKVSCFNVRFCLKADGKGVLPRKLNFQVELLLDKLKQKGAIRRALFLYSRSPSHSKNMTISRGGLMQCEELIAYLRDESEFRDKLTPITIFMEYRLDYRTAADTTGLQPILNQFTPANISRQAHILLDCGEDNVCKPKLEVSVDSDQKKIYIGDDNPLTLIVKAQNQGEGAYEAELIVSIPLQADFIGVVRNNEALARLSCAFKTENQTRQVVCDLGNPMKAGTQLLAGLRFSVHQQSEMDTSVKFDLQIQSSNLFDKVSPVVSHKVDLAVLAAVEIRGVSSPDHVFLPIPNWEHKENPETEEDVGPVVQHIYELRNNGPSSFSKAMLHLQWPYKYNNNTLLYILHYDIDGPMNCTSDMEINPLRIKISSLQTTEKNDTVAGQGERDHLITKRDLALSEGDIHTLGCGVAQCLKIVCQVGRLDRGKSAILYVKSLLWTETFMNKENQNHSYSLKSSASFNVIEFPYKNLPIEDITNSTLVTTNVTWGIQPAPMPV
T1 sequence (P18084 24-719, chain 2 of 2): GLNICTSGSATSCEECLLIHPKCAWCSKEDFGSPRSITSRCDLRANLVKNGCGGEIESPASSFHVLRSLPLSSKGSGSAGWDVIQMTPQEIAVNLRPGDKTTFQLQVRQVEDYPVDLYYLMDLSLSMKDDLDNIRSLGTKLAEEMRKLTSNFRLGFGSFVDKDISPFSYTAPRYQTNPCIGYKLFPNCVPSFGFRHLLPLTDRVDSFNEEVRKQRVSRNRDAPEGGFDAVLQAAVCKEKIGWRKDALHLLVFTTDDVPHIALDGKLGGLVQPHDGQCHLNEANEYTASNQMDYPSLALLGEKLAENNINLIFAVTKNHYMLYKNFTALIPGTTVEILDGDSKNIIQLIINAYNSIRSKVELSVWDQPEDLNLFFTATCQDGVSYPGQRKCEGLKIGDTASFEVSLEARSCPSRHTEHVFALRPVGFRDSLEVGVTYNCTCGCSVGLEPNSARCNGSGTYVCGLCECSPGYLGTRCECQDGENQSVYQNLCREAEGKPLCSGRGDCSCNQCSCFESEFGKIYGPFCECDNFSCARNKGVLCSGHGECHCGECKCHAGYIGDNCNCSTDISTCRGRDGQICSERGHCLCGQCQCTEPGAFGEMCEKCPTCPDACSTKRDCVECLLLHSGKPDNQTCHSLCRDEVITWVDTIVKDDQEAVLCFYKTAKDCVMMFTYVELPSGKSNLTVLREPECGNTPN
EXPERIMENTAL_DETAILS: phage ELISA, coated integrin, anti-M13-HRP
MEASURED_ATTRIBUTE: αvβ5 signal
Kindly report the value followed by its unit.

What value of αvβ5 signal has been recorded for this entry: M13 phage pKK112 displaying MICA α3 domain with tight loop 1 insert T-AMY (loop 1 from tendamistat) (designed binder, not shown: large carriers) TVPPMVNYQSWRYSQCRASGFYPWNITLSWRQDGVSLSHDTQQWGDVLPDGNGTYQTWVATRICQGEEQRFTCYMEHSGNHSTHPVPSGK
0.515 OD

Now give it for M13 phage pKK109 displaying MICA α3 domain with tight loop 1 insert T-3.3 (designed binder, not shown: large carriers) TVPPMVNRVPRGDSDLTCRASGFYPWNITLSWRQDGVSLSHDTQQWGDVLPDGNGTYQTWVATRICQGEEQRFTCYMEHSGNHSTHPVPSGK too.
0.167 OD

Now give it for M13 phage pKK95 displaying MICA α3 domain with loop 1 insert 3.4 (designed binder, not shown: large carriers) TVPPMVNVTRSARGDSDHRVTCRASGFYPWNITLSWRQDGVSLSHDTQQWGDVLPDGNGTYQTWVATRICQGEEQRFTCYMEHSGNHSTHPVPSGK too.
0.232 OD

Now give it for M13 phage pKK100 displaying MICA α3 domain with loop 1 insert 3.2sp (designed binder, not shown: large carriers) TVPPMVNVTSGGSGGGSTSRGDHPRTQSGGSGGGVTCRASGFYPWNITLSWRQDGVSLSHDTQQWGDVLPDGNGTYQTWVATRICQGEEQRFTCYMEHSGNHSTHPVPSGK too.
0.186 OD
